- Measured Target: SAP (Homo sapiens, UniProt P02743)
- Sequence (P02743 20-223): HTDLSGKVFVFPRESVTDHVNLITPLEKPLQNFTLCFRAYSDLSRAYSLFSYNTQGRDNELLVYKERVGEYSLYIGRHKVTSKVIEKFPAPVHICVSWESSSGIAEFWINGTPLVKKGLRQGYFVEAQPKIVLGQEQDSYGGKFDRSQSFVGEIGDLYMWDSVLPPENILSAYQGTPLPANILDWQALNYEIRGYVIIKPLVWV
Observation Type: Kd
Give the number first and the unit second.

-- ask Entry under review: O=C(O)[C@H]1CCCN1C(=O)CCCCC(=O)N1CCC[C@@H]1C(=O)O . Reported Kd?
-- reply 10 nM
